Test system: SK-OV-3 ovarian
Experiment: NCI tumour cell line growth inhibition, 48 h
METRIC: TGI

CC(=O)Nc1nc(C)c(S(=O)(=O)NC(=O)NC2NC(=O)NC2=O)s1 (stereo not drawn); > 100 µM
O=c1[nH]c(NCc2cccnc2)nc2nc[nH]c12; > 100 µM
Nc1nc(=O)n(C2CCC(CO)O2)cc1F (stereo not drawn); > 100 µM
CC(C)(C)OC(=O)NCC(CNC(=O)OC(C)(C)C)C(N)=O; > 100 µM

**Query** I am curious: what TGI value has been reported for NCCCCC(NC(=O)C(N)CCCN=C(N)N)C(=O)NC(CCCCN)C(=O)NC(CCCN=C(N)N)C(=O)NC(CCCN=C(N)N)C(=O)NC(CCC(N)=O)C(=O)NC(CCCN=C(N)N)C(=O)NC(CCCN=C(N)N)C(=O)NC(CCCN=C(N)N)C(=O)NCC(=O)NCC(=O)O (stereo not drawn) ?
**Result** > 50 µM

**Query** I am curious: what TGI value has been reported for COC(=O)C1=C(C)NC(=O)N2[C@@H](CCOCc3ccccc3)CC[C@@H]12 ?
**Result** > 50 µM

**Query** I am curious: what TGI value has been reported for COc1ccc(NC(=O)Oc2ccc3c(C)cc(=O)oc3c2)c(OC)c1 (tested in a mixture with another compound) ?
**Result** > 100 µM

**Query** I am curious: what TGI value has been reported for CC(C)(C)c1ccc2c(c1)OP1(Oc3c(Cl)cc(Cl)c4cccnc34)(O2)Oc2ccc(C(C)(C)C)cc2O1 ?
**Result** 16.5 µM

====

Reported TGI by item:
Test system: HL-60(TB) leukemia
Test: NCI tumour cell line growth inhibition, 48 h

Solved cases below.
CC(=O)Nc1nc(C)c(S(=O)(=O)NC(=O)NC2NC(=O)NC2=O)s1 (stereo not drawn); > 100 µM
O=C(Nc1ccccc1)N(CCN(Cc1ccccc1)C(=O)Nc1ccccc1)CCN(Nc1ccccc1)C(=O)Nc1ccccc1; > 100 µM

**Query** I am curious: what TGI value has been reported for NCCCCC(NC(=O)C(N)CCCN=C(N)N)C(=O)NC(CCCCN)C(=O)NC(CCCN=C(N)N)C(=O)NC(CCCN=C(N)N)C(=O)NC(CCC(N)=O)C(=O)NC(CCCN=C(N)N)C(=O)NC(CCCN=C(N)N)C(=O)NC(CCCN=C(N)N)C(=O)NCC(=O)NCC(=O)O (stereo not drawn) ?
**Result** > 50 µM

====

Test system: NCI-H522 lung
Assay: NCI tumour cell line growth inhibition, 48 h; in the data active means GI50 below about 0.43 µM; inactive means the rest
Response enum: active, inactive

Here are 6 compounds together with their reported answers.
CC(=O)O.CN1[CH-]N(Cc2ccc(C#N)cc2)c2ccccc21.[Ag+]; inactive
CCSC[C@@H]1C[C@](O)(c2ccc(Cl)cc2)[C@@H](c2ccc(Cl)cc2)O1; inactive
NC(=S)N/N=C/c1ccc(OC(=O)COc2cc(Cl)c(Cl)cc2Cl)cn1; inactive
Nc1ncc(-c2ccc3ncnc(Nc4cccc(Cl)c4)c3c2)cn1; active
COc1cc(CCC[P+](c2ccccc2)(c2ccccc2)c2ccccc2)c(OC)c2c1OCO2; inactive
COc1ccc2c(c1)c(-c1nc(-c3cn(C)c4ccncc34)cs1)cn2C; inactive

Consider now this further compound.
**Query** Outcome? NC(=O)c1cc(N2CC2)c([N+](=O)[O-])cc1[N+](=O)[O-]
**Result** inactive
